# TARGET_DESC: T1, Peptide 8: Biotin-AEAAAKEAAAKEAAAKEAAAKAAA-Tyr-acid (N-terminal biotin; C-terminal acid)
# T1 construct: control peptide without PC
# T1 peptide: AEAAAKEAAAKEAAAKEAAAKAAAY
# EXPERIMENTAL_PROTOCOL: scFv ELISA
METRIC: OD450 (OD450)
Numbers only, in OD450.

PcOxP_DB02_H10 (scFv, V domains shown, scFv in periplasmic extract) VH: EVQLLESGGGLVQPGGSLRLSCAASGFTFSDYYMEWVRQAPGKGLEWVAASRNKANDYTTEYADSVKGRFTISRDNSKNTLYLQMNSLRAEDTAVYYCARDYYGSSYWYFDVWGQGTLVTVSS VL: DIQMTQSPSSLSASVGDRVTITCTASESLYSSKHKVHYLAWYQQKPGKAPKLLIYGAGNRYIGVPSRFSGSGSGTDFTLTISSLQPEDFATYYCAQFYEYPLTFGGGTKVEIK ... 0.05

Which OD450 is listed for PcOxP_DB02_D10 (scFv, V domains shown, scFv in periplasmic extract) VH: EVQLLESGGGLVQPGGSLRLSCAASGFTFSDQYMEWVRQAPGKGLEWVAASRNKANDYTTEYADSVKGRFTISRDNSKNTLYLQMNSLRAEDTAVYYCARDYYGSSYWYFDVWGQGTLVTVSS VL: DIQMTQSPSSLSASVGDRVTITCTATESLYSSKHKVHYLAWYQQKPGKAPKLLIYGASNRYTGVPSRFSGSGSGTDFTLTISSLQPEDFATYYCAQFYSYPLTFGGGTKVEIK ?
0.04
